Source of measurements: paper PMC11887451

System: patient-derived Meso84 cell line (sarcomatoid MPM)
Experiment: MTT cytotoxicity assay, 72 h, Meso84
Type: cell-based, human
Conditions: exposure time 72 h
PARAMETER_MEASURED: IC50 (nM)
Write it as a number; the unit nM goes unstated.

Example results:
MOLECULE	MEAS_VALUE
CC[N+](CC)=C1[S][Au-]2([S]1)[c]1ccccc1-c1cccc[n+]12.F[P-](F)(F)(F)(F)F (stereo not shown) [1B]	85
CC[N+](=C1[S][Au-]2([S]1)[c]1ccccc1Nc1cccc[n+]12)c1ccccc1.F[P-](F)(F)(F)(F)F (stereo not shown) [5E]	510
F[P-](F)(F)(F)(F)F.c1cc[c]2c(c1)-c1cccc[n+]1[Au-]21[S]C(=[N+]2CCCC2)[S]1 (stereo not shown) [1F]	190

INPUT: // IC50 lookup, key: F[P-](F)(F)(F)(F)F.c1cc[c]2c(c1)Cc1cccc[n+]1[Au-]21[S]C(=[N+]2CCCCC2)[S]1 (stereo not shown) [2H]
OUTPUT: 300
